- assay notes: Inhibition of Wnt/beta-catenin transactivation signalling in HEK293 cells transfected with renilla luciferase and TOPFlash reporter gene incubated for 24 hrs by dual-luciferase assay
- Format: cell-based
- experimental conditions: Homo sapiens, HEK293, 24 h
measured quantity: pIC50
pIC50 here: minus log base 10 of the concentration, concentration in moles per litre.

O=c1c2ccccc2nc2n1CCc1c-2[nH]c2ccccc12 yielded pIC50 of 5.37

###

- Tested on: CCD-18Co
- assay notes: Antiproliferative activity against human CCD-18Co cells assessed as reduction in cell viability measured after 72 hrs by SRB assay
- Format: functional, cell-based
Form field: IC50 (one value per entry).

# molecule, IC50
rows = [
    ("COc1cc([C@@H]2c3cc4c(cc3[C@@H](O[C@@H]3O[C@@H]5CO[C@@H](C)O[C@H]5[C@H](O)[C@H]3O)[C@H]3COC(=O)[C@H]23)OCO4)cc(OC)c1O [ETOPOSIDE]", "20.3 µM"),
    ("CCc1c2c(nc3ccc(OC(=O)N4CCC(N5CCCCC5)CC4)cc13)-c1cc3c(c(=O)n1C2)COC(=O)[C@]3(O)CC", "18.5 µM"),
]

Item: O=c1c2ccccc2nc2n1CCc1c-2[nH]c2ccccc12 | System: CCD-18Co | IC50: > 50 µM
